These measurements were taken from patent US20230026808A1.

ASSAY PROCEDURE: in vivo
CONDITION LABEL: female, rat, iv, 10 mg/kg/day
MEASUREMENT TYPE: AUC(0-inf) (µg·h/mL)

INSERT INTO assay_data (compound, measurement_type, endpoint_unit, result_value) VALUES
  ('Cc1ccc(Nc2nccc(N(C)c3ccc4c(C)n(C)nc4c3)n2)cc1S(N)(=O)=O [pazopanib]', 'AUC(0-inf)', 'µg·h/mL', 276);

---

ASSAY PROCEDURE: Clinical pharmacokinetics of pazopanib
Assay type: in vivo
CONDITION LABEL: in vivo; human, IV 20 mg/subject, extrapolated; read-out: AUC(0-∞), assuming dose-linearity
MEASUREMENT TYPE: AUC(0-inf) (ng·h/mL)

INSERT INTO results (smiles_repr, result_value) VALUES
  ('Cc1ccc(Nc2nccc(N(C)c3ccc4c(C)n(C)nc4c3)n2)cc1S(N)(=O)=O', 81600);
